test: chemical genetic growth profiling, strain panel (AID 1159580);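 note: tested at 20 µM; growth read once vehicle control cultures reached saturation at 30 °C; 1 = growth at the plate median or of vehicle wells; lower values mean less growth of the strain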; conditions: S. cerevisiae deletion strains, growth OD, locus YOR144C, strain elg1, hits give low values
Among all 5,500 compounds or so, about 2,000 (36%) were called active. Roughly 18% stayed inconclusive and do not appear here. The list shows a part of the results.
Listed below: normalized growth values for each entry.
// no unit string in output, number only

Below, 5 molecules whose answers are already recorded.
The reported normalized growth of the molecule C[C@H](CCC(=O)O)[C@H]1CCC2C3C(=O)CC4CC(=O)CC[C@]4(C)C3CC(=O)[C@@]21C (stereo partly specified) was 1.01

The reported normalized growth of the molecule CC1=CC(=O)c2ccccc2C1=O was 0.063

The reported normalized growth of the molecule COC(=O)c1c(OC)cc2c(c1C)Oc1c(Cl)c(O)c(Cl)c(C)c1C(=O)O2 was 0.947

The reported normalized growth of the molecule CC(N=C(NC#N)Nc1ccncc1)C(C)(C)C (stereo unspecified) was 1.02

The reported normalized growth of the molecule Nc1ccc(C(=O)O)cc1 was 1.01

Here's the next entry for you.
The reported normalized growth of the molecule CC(CCC(=O)O)[C@H]1CCC2C3CC[C@@H]4CC(=O)CC[C@]4(C)C3C=C[C@@]21C (stereo partly specified) was 0.988
